These measurements were taken from paper PMC4549708.

target-system: NA (H5N1) (Influenza A virus, UniProt K0C216)
measurement-protocol: biochemical
Kindly state IC50 for each of the entries shown.
Answer in µM, number only, no unit symbol.

IN: Report IC50 for CC(=O)O[C@H]1C[C@H]([C@H](C)CC/C=C(\C)C(=O)O)[C@@]2(C)CC=C3C(=CC[C@H]4C(C)(C)C(=O)CC[C@]34C)[C@]12C tested on NA (H5N1) (Influenza A virus, UniProt K0C216).
OUT: 1.2

IN: What about C/C(C=O)=C\CC[C@@H](C)[C@H]1CC[C@@]2(C)C3=CC[C@H]4C(C)(C)[C@@H](O)CC[C@]4(C)C3=CC[C@]12C ?
OUT: 164

IN: Try the compound CC(=O)O[C@H]1C[C@H]([C@H](C)CC/C=C(\C)C(=O)O)[C@@]2(C)CC=C3C(=CC[C@H]4C(C)(C)[C@@H](O)CC[C@]34C)[C@]12C
OUT: 2.7
